# SYSTEM UNDER TEST: 17β-hydroxysteroid dehydrogenase type 1 (Homo sapiens, UniProt P14061)
# Construct: expressed in transfected cells; host or cells: MCF-7
# Sequence (P14061 whole entry): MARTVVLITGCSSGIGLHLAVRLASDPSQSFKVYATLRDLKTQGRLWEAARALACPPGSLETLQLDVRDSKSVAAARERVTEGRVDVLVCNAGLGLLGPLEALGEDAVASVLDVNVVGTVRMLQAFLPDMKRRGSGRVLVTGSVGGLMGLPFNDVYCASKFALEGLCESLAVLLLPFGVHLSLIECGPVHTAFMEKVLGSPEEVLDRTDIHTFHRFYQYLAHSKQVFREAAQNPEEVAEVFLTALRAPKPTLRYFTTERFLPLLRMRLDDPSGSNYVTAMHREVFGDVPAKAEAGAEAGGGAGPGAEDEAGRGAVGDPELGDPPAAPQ
# ASSAY REMARKS: Inhibition of 17β-HSD type 1 in MCF-7 cells stably expressing the isoenzyme (HPLC, tritium labeled estrone)
# Format: cell-based
# STATED CONDITIONS: MCF7, 1 μM compound, 2 nM estrone, read-out: % Inhibition of the 17β-HSD enzyme type 1 (HSD1)
Attribute: inhibition at 1 µM
READOUT NAME: inhibition at 1 µM (%)

COMPOUND: O=CC1=C([S+]([O-])c2ccccc2)c2sc3nc4n(c(=O)c3c2CC1)CCCCC4 (stereo not drawn) [Compound 30]
READOUT NAME: inhibition at 1 µM
VALUE: 23.1

COMPOUND: CC1CCc2nc3sc4c(c3c(=O)n2CC1)CCC(C=O)=C4Cl (stereo not drawn) [Compound 20]
READOUT NAME: inhibition at 1 µM
VALUE: 10.4

COMPOUND: O=Cc1ccc2c(sc3nc4n(c(=O)c32)CCCCC4)c1Sc1ccccc1 [Compound 12]
READOUT NAME: inhibition at 1 µM
VALUE: 15.1

COMPOUND: O=c1c2c3c(sc2nc2n1CCC2)CCCC3 [Compound 2f]
READOUT NAME: inhibition at 1 µM
VALUE: 19.9

COMPOUND: O=C1CCCc2c1sc1nc3n(c(=O)c21)CCCCCC3 [Compound 3d]
READOUT NAME: inhibition at 1 µM
VALUE: 14.3

COMPOUND: CCOC(=O)C1CCc2nc3sc4c(c3c(=O)n2CC1)CCCC4=O (stereo not drawn) [Compound 19]
READOUT NAME: inhibition at 1 µM
VALUE: 10.6

COMPOUND: CC1CCc2c(sc3nc4n(c(=O)c23)CCCCC4)C1 (stereo not drawn) [Compound 27]
READOUT NAME: inhibition at 1 µM
VALUE: 11.4

COMPOUND: O=C1CCCc2c1sc1nc3ccccn3c(=O)c21 [Compound 26]
READOUT NAME: inhibition at 1 µM
VALUE: 6.4

COMPOUND: CCOC(=O)C1CCc2nc3sc4c(c3c(=O)n2CC1)CCCC4 (stereo not drawn) [Compound 16]
READOUT NAME: inhibition at 1 µM
VALUE: 17.2
